Test: Unbound intrinsic clearance in human hepatocytes
Format: ADME, cell-based, Hepatocyte

# Molecular String, fraction unbound
rows = [
    ("CC(=O)N1CCc2nc(N3CCC(Oc4ccc(F)cc4F)CC3)c(N[C@@H]3CCOC3)nc2C1", 0.51),
]

###

Target: G-protein coupled receptor 6 (Homo sapiens, UniProt P46095)
Sequence (P46095 whole entry): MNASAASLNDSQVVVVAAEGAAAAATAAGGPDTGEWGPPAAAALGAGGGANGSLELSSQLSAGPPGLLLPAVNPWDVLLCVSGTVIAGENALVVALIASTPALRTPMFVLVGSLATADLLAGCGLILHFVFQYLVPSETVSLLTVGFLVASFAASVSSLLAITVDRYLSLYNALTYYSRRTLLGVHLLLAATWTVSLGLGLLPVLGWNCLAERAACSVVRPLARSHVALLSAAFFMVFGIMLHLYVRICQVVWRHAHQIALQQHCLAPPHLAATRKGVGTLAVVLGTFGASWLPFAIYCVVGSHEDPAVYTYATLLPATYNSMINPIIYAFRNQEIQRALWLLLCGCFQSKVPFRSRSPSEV
Test: Inverse agonist activity at human GPR6 expressed in CHO-K1 cells assessed as modulation of cAMP level incubated for 20 hrs by TR-FRET assay relative to control
Type: functional, cell-based
Conditions: filed as inverse agonist
Emax overview
Outcome Measure: Emax (%)

# Molecular String, Recorded Measurement
data = [
    ("N#Cc1ccc2nc(N3CCN(Cc4cc(Cl)ccc4Cl)CC3)c(NC3CC3)nc2c1", 107),
    ("COc1ccc2nc(N3CCN(Cc4cc(Cl)ccc4Cl)CC3)c(NC3CC3)nc2c1", 90),
    ("Cc1ccc2nc(N3CCN(Cc4cc(Cl)ccc4Cl)CC3)c(NC3CC3)nc2c1", 90),
    ("Clc1ccc(Cl)c(CN2CCN(c3nc4cnccc4nc3NC3CC3)CC2)c1", 110),
    ("Clc1ccc(Cl)c(CN2CCN(c3nc4ccncc4nc3NC3CC3)CC2)c1", 102),
]

###

Molecular target: G-protein coupled receptor 6 (Homo sapiens)
Assay: Inverse agonist activity at human GPR6 expressed in CHO-K1 cells assessed as modulation of cAMP level incubated for 20 hrs by TR-FRET assay
Outcome Measure: EC50 (nM)

# Molecular String, Recorded Measurement
data = [
    ("CN(C)C(=O)c1ccc2nc(NC3CC3)c(N3CCN(Cc4cc(Cl)ccc4Cl)CC3)nc2c1", 90),
    ("CC(C)Nc1nc2cc(C#N)ncc2nc1N1CCC(Oc2ccc(F)cc2F)CC1", 55),
    ("Cc1cc2nc(NC3CC3)c(N3CCC(Oc4ccc(F)cc4F)CC3)nc2cn1", 29),
]

###

Target: G-protein coupled receptor 6 (Homo sapiens, UniProt P46095)
Outcome Measure: Ki

# Molecular String, Measured Target, Outcome Measure, Recorded Measurement
measured = [
    ("CC(=O)N1CCc2nc(N3CCC(Oc4ccc(F)cc4F)CC3)c(N[C@@H]3CCOC3)nc2C1", "G-protein coupled receptor 6 (Homo sapiens, UniProt P46095)", "Ki", "9.4 nM"),
]

###

Experiment: Lipophilicity, log D of compound
Type: physicochemical
Conditions: octanol/water

# Molecular String, logD
data = [
    ("CC(=O)N1CCc2nc(N3CCC(Oc4ccc(F)cc4F)CC3)c(N[C@@H]3CCOC3)nc2C1", 3.6),
]

###

Papp A→B overview
Test: Permeability of compound across apical to basolateral side in pig LLC-PK1 cells expressing MDR1
Assay type: ADME, cell-based, Sus scrofa
Conditions: read-out: permeability

# Molecular String, Papp A→B (×10⁻⁶ cm/s)
records = [
    ("CC(=O)N1CCc2nc(N3CCC(Oc4ccc(F)cc4F)CC3)c(N[C@@H]3CCOC3)nc2C1", 17),
    ("Fc1ccc(CN2CCN(c3nc4cnccc4nc3NC3CC3)CC2)c(F)c1", 16),
]

###

Emax overview
Target: G-protein coupled receptor 6 (Homo sapiens, UniProt P46095)
Experiment: Inverse agonist activity at human GPR6 expressed in CHO-K1 cells assessed as modulation of cAMP level incubated for 20 hrs by TR-FRET assay relative to control
Type: functional, cell-based
Conditions: filed as inverse agonist

# Molecular String, Measured Target, Emax, %
data = [
    ("Clc1ccc(Cl)c(CN2CCN(c3nc4ccccc4nc3NC3CC3)CC2)c1", "G-protein coupled receptor 6 (Homo sapiens, UniProt P46095)", 89),
    ("Fc1ccc2nc(N3CCN(Cc4cc(Cl)ccc4Cl)CC3)c(NC3CC3)nc2c1", "G-protein coupled receptor 6 (Homo sapiens, UniProt P46095)", 90),
    ("Cc1cccc(CN2CCN(c3nc4nonc4nc3NC3CC3)CC2)c1", "G-protein coupled receptor 6 (Homo sapiens, UniProt P46095)", 73),
    ("CN(C)C(=O)c1ccc2nc(NC3CC3)c(N3CCN(Cc4cc(Cl)ccc4Cl)CC3)nc2c1", "G-protein coupled receptor 6 (Homo sapiens, UniProt P46095)", 105),
    ("Cc1cccc(CN2CCN(c3nc4ccccc4nc3NC3CC3)CC2)c1", "G-protein coupled receptor 6 (Homo sapiens, UniProt P46095)", 110),
]

###

Biological target: hERG (KCNH2) (Homo sapiens)
Sequence (Q12809 whole entry): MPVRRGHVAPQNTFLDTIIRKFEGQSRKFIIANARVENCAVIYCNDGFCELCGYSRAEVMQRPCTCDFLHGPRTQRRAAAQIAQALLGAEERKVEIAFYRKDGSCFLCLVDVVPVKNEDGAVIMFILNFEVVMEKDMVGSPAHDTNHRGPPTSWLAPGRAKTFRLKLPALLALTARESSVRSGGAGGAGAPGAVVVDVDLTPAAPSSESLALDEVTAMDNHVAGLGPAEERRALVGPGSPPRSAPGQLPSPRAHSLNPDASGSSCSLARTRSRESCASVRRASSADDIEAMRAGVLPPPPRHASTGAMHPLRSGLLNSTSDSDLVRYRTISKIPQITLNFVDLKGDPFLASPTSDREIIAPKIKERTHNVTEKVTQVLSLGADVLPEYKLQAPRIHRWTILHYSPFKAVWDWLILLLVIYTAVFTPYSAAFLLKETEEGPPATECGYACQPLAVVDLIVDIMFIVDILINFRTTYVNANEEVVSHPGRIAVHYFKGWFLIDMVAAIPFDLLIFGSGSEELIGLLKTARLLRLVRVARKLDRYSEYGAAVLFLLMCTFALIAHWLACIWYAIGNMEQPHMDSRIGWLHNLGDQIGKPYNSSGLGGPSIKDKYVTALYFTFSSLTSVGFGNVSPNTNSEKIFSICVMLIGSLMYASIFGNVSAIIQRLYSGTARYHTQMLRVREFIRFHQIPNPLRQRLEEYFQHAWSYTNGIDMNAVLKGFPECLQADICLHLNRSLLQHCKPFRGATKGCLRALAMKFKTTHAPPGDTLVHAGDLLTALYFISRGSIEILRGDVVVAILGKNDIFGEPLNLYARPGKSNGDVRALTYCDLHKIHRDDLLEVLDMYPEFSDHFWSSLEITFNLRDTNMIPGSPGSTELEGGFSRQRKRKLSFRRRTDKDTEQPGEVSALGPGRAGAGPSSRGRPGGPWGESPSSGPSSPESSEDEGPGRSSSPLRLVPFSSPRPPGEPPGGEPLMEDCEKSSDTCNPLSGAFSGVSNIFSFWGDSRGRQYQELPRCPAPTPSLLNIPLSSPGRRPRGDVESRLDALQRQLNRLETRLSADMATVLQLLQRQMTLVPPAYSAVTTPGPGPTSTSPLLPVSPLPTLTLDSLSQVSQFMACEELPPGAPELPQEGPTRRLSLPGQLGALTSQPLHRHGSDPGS
Assay: Inhibition of human ERG at 10 uM relative to control
Format: toxicity
inhibition at 10 µM overview
Outcome Measure: inhibition at 10 µM (%)

# Molecular String, Measure Unit, Recorded Measurement
rows = [
    ("Cc1cc2nc(NC(C)C)c(N3CCC(Oc4ccc(F)cc4F)CC3)nc2cn1", "%", 75),
    ("CC(C)Nc1nc2c(nc1N1CCC(Oc3ccc(F)cc3F)CC1)CCN(C)C2", "%", 36),
    ("Cc1cc2nc(N3CCC(Oc4ccc(F)cc4F)CC3)c(NC(C)C)nc2cn1", "%", 71),
    ("Cc1cc2nc(NC3CC3)c(N3CCC(Oc4ccc(F)cc4F)CC3)nc2cn1", "%", 75),
    ("Fc1ccc(CN2CCN(c3nc4cnccc4nc3NC3CC3)CC2)c(F)c1", "%", 40),
    ("Cc1cc2nc(NC(C)C)c(N3CCN(Cc4ccc(F)cc4F)CC3)nc2cn1", "%", 13),
    ("Fc1ccc(F)c(CN2CCN(c3nc4cnccc4nc3NC3CC3)CC2)c1", "%", 40),
    ("Cc1cc2nc(NC3CC3)c(N3CCN(Cc4ccc(F)cc4F)CC3)nc2cn1", "%", 23),
]

###

efflux ratio overview
Biological target: P-gp (MDR1, ABCB1) (Homo sapiens)
Sequence (P08183 whole entry): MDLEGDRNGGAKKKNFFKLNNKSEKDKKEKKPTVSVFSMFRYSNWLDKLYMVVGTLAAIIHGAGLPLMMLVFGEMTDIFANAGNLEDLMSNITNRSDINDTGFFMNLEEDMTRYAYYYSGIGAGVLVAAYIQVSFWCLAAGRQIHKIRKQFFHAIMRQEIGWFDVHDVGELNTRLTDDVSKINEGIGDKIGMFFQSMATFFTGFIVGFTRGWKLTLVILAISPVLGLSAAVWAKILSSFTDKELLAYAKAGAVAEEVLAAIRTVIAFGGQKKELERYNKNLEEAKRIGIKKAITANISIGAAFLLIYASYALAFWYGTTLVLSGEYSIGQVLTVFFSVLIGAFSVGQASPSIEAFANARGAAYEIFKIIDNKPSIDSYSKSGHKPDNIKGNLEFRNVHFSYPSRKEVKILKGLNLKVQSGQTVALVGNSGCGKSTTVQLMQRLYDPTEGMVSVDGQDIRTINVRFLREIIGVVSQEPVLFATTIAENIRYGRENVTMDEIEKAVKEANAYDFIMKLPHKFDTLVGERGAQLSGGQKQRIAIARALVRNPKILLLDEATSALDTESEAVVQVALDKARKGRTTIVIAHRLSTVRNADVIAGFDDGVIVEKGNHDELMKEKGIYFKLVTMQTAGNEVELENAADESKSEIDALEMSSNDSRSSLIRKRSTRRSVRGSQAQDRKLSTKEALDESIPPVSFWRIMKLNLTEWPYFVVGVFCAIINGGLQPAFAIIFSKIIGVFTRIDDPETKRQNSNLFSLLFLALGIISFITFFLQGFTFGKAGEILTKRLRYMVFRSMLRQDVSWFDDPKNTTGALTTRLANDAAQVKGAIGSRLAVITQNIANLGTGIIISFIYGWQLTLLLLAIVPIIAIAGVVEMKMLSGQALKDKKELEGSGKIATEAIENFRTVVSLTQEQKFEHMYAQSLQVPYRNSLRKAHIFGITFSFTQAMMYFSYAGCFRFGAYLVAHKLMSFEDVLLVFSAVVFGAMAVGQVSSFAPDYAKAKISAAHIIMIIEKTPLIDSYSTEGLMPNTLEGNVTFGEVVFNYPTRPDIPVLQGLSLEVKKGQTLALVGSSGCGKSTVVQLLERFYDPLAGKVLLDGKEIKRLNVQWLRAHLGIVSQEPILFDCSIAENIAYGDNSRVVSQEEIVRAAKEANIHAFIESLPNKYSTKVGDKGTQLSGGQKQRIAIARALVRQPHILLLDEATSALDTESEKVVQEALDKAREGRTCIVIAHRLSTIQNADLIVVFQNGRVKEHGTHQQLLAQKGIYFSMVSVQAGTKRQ
Test: Substrate activity at P-gp (unknown origin) transfected in pig LLC-PK1 cells expressing MDR1 gene assessed as efflux ratio
Format: ADME, cell-based
Outcome Measure: efflux ratio

# Molecular String, Recorded Measurement
data = [
    ("CC(=O)N1CCc2nc(N3CCC(Oc4ccc(F)cc4F)CC3)c(N[C@@H]3CCOC3)nc2C1", 0.7),
    ("Fc1ccc(CN2CCN(c3nc4cnccc4nc3NC3CC3)CC2)c(F)c1", 0.5),
]

###

Target: G-protein coupled receptor 6 (Homo sapiens)
Assay: Inverse agonist activity at human GPR6 expressed in CHO-K1 cells assessed as modulation of cAMP level incubated for 20 hrs by TR-FRET assay
Type: functional, cell-based
Outcome Measure: log10 of EC50 (log10 of the value in nM)

# Molecular String, Measured Target, log10 of EC50
data = [
    ("CCC(=O)N1CCc2nc(N3CCN(Cc4ccc(F)cc4F)CC3)c(NC(C)C)nc2C1", "G-protein coupled receptor 6 (Homo sapiens)", 1.48),
    ("Clc1ccc(Cl)c(CN2CCN(c3nc4ccncc4nc3NC3CC3)CC2)c1", "G-protein coupled receptor 6 (Homo sapiens)", 1.74),
    ("Clc1ccc(Cl)c(CN2CCN(c3nc4ccccc4nc3NC3CC3)CC2)c1", "G-protein coupled receptor 6 (Homo sapiens)", 3.32),
    ("CC(C)Nc1nc2c(nc1N1CCC(Oc3ccc(F)cc3F)CC1)CCN(C)C2", "G-protein coupled receptor 6 (Homo sapiens)", 1.95),
    ("Cc1cc2nc(N3CCC(Oc4ccc(F)cc4F)CC3)c(NC(C)C)nc2cn1", "G-protein coupled receptor 6 (Homo sapiens)", 4.79),
    ("Cc1cccc(CN2CCN(c3nc4nonc4nc3NC3CC3)CC2)c1", "G-protein coupled receptor 6 (Homo sapiens)", 4.63),
    ("Cc1cc2nc(N3CCC(Oc4ccc(F)cc4F)CC3)c(NC3CC3)nc2cn1", "G-protein coupled receptor 6 (Homo sapiens)", 1.98),
    ("Cc1cc2nc(NC(C)C)c(N3CCN(Cc4ccc(F)cc4F)CC3)nc2cn1", "G-protein coupled receptor 6 (Homo sapiens)", 4.71),
    ("CC(=O)N1CCc2nc(N3CCC(Oc4ccc(F)cc4F)CC3)c(N[C@@H]3CCOC3)nc2C1", "G-protein coupled receptor 6 (Homo sapiens)", 4.58),
    ("CC(C)Nc1nc2ccncc2nc1N1CCN(Cc2ccc(F)cc2F)CC1", "G-protein coupled receptor 6 (Homo sapiens)", 1.32),
    ("Cc1cc2nc(NC3CC3)c(N3CCN(Cc4ccc(F)cc4F)CC3)nc2cn1", "G-protein coupled receptor 6 (Homo sapiens)", 1.46),
    ("Fc1ccc2nc(N3CCN(Cc4cc(Cl)ccc4Cl)CC3)c(NC3CC3)nc2c1", "G-protein coupled receptor 6 (Homo sapiens)", 3.08),
    ("Cc1cc2nc(NC(C)C)c(N3CCC(Oc4ccc(F)cc4F)CC3)nc2cn1", "G-protein coupled receptor 6 (Homo sapiens)", 1.20),
    ("COc1ccc2nc(N3CCN(Cc4cc(Cl)ccc4Cl)CC3)c(NC3CC3)nc2c1", "G-protein coupled receptor 6 (Homo sapiens)", 3.61),
    ("Fc1ccc(CN2CCN(c3nc4cnccc4nc3NC3CC3)CC2)c(F)c1", "G-protein coupled receptor 6 (Homo sapiens)", 1.59),
    ("Cc1ccc2nc(N3CCN(Cc4cc(Cl)ccc4Cl)CC3)c(NC3CC3)nc2c1", "G-protein coupled receptor 6 (Homo sapiens)", 4.20),
    ("Fc1ccc(Cl)cc1CN1CCN(c2nc3cnccc3nc2NC2CC2)CC1", "G-protein coupled receptor 6 (Homo sapiens)", 1.46),
    ("Clc1ccc(Cl)c(CN2CCN(c3nc4cnccc4nc3NC3CC3)CC2)c1", "G-protein coupled receptor 6 (Homo sapiens)", 1.72),
    ("Cc1cccc(CN2CCN(c3nc4ccccc4nc3NC3CC3)CC2)c1", "G-protein coupled receptor 6 (Homo sapiens)", 4.15),
    ("Fc1ccc(F)c(CN2CCN(c3nc4cnccc4nc3NC3CC3)CC2)c1", "G-protein coupled receptor 6 (Homo sapiens)", 2.18),
    ("N#Cc1ccc2nc(N3CCN(Cc4cc(Cl)ccc4Cl)CC3)c(NC3CC3)nc2c1", "G-protein coupled receptor 6 (Homo sapiens)", 2.24),
]
